# experimental-system: Ylr278c (UniProt Q05854)
# Sequence (Q05854 whole entry): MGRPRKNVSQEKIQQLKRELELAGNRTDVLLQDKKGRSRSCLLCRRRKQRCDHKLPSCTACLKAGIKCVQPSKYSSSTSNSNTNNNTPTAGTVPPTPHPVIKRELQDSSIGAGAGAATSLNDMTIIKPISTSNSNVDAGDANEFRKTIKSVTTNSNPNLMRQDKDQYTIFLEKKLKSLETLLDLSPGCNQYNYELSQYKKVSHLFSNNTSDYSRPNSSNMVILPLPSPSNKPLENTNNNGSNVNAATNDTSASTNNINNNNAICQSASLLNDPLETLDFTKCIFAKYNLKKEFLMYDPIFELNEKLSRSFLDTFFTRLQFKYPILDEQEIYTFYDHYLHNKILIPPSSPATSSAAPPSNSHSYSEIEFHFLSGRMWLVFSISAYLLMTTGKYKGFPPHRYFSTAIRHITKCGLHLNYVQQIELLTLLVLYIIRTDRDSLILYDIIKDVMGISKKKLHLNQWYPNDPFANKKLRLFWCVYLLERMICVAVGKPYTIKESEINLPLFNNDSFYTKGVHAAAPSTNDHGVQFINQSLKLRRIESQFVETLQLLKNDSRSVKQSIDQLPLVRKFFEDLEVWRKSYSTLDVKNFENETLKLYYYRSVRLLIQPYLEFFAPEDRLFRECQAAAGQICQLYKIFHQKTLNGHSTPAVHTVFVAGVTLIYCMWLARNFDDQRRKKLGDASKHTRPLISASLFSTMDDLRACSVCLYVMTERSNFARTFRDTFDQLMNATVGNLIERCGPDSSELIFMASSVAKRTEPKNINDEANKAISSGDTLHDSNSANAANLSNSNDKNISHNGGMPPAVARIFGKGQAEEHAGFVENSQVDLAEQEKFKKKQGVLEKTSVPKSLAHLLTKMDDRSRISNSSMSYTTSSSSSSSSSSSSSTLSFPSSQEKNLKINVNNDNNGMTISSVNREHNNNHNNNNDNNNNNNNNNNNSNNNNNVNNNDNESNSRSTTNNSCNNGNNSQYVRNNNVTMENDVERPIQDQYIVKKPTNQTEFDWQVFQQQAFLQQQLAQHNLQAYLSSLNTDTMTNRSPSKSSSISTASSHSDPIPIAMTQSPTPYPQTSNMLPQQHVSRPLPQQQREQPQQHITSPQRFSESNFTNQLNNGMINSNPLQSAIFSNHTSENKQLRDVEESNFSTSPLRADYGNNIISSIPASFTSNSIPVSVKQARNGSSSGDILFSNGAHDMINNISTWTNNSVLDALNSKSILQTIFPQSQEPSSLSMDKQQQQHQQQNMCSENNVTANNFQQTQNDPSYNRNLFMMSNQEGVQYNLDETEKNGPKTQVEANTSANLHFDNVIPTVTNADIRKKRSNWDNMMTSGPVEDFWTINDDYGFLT
# measurement-notes: PBM E-score (8-mer binding enrichment) (E-score (-0.5 to 0.5)); higher = stronger / more preferred TF binding
# test-conditions: protein concentration: 200 nM; construct: GST-DNA-binding domain
The full ranking holds about 33,000 sequences; the median of “E-score (-0.5 to 0.5)” is about -0.054, and the highest 2% start at about 0.39. The entries come from a sample that favours the highest values as a whole.
readout: PBM E-score
Answers are plain numbers.

Field: example entries. Status: answers known.
1) CTGCGGCC	0.2
2) CACCGGCA	0.328
3) CTCCGGCA	0.469
4) GCTCGGGA	0.174
5) TCCGGACA	0.456
6) AAGCCCGA	0.27

Please give PBM E-score, item by item, for the list that follows.
1. AAATCAAC
2. TACGGACA

[A]
-0.111
0.257

# batch size: 4; output PBM E-score per entry
1. AGGGCTAA
2. AGTTCATA
3. AAGGCATT
4. CAGTGGCG

[A]
1: -0.0787; 2: -0.0477; 3: -0.246; 4: 0.0163

Parameter requested: PBM E-score. Apply to each item below.
1. TGCGGACA
2. CCAGTAGG
3. CCAGGTCA
4. GGAAGTTA
5. ACCGGACG

[A]
1: 0.356; 2: -0.101; 3: -0.253; 4: 0.204; 5: 0.369
